Source of measurements: patent US20160263081A1

Test system: P. falciparum erythrocytic stage
Experiment: P. falciparum proliferation by LDH assay
Type: cell-based, Plasmodium falciparum
Details: read-out: Celluler IC50
Property Measured: IC50 (µM)

[
  {
    "Smiles Code": "Cc1cc(O)c2c(c1)O[C@@]1(C)CC[C@H]3C(C)(C)CCC[C@]34CO[C@@H]2[C@H]41",
    "Unit Descriptor": "µM",
    "Endpoint Result": 16
  }
]

====

Tested on: L. tarentolae promastigote
Test: Proliferation by Alamar Blue method, L. tarentolae promastigote
Assay type: cell-based
Settings: Leishmania tarentolae, read-out: Celluler IC50
pIC50: −log10 of the molar value.

[
  {
    "Compound": "Cc1cc(O)c2c(c1)O[C@@]1(C)CC[C@H]3C(C)(C)CCC[C@]34CO[C@@H]2[C@H]41 [siccanin]",
    "Target": "L. tarentolae promastigote",
    "pIC50": 5.36
  }
]
